tested.target: ENOPH1 Enolase-phosphatase E1 (Homo sapiens, UniProt Q9UHY7)
Construct: endogenous in cells; host or cells: MDA-MB-231 (soluble fraction of lysate)
Sequence (Q9UHY7 whole entry): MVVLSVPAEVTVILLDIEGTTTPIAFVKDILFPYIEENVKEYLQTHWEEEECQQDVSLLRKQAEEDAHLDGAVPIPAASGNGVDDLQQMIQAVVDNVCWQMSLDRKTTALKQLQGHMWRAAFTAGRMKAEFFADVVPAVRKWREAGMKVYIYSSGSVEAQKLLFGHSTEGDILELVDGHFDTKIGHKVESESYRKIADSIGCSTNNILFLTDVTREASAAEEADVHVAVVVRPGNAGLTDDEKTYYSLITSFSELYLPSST
assay.overview: competitive isoTOP-ABPP
Format: binding
settings: Q9UHY7_K111; 50 uM, 231 sol, in vitro
experimental.readout: R value (DMSO/fragment) for probe 1 labeling

{"columns": ["compound", "reported.value"],
 "data": [
  ["COc1cc(CCC(=O)Oc2c(F)c(F)c(F)c(F)c2F)cc(OC)c1OC [fragment 23]", 1.3],
  ["Cn1cc(CC(=O)Oc2c(F)c(F)c(F)c(F)c2F)c2ccccc21 [fragment 22]", 1.4],
  ["O=C(Oc1c(F)c(F)c(F)c(F)c1F)c1cc(C(F)(F)F)cc(C(F)(F)F)c1 [fragment 21]", 1.0],
  ["O=C(Oc1c(F)c(F)c(F)c(F)c1F)C(c1ccccc1)c1ccccc1 [fragment 20, Pentafluorophenyl 2,2-diphenylacetate]", 1.0],
  ["O=C(CCc1cn(-c2ccccc2)nc1-c1ccccc1)Oc1c(F)c(F)c(F)c(F)c1F [fragment 19]", 1.0]
]}

Cited source: patent US20210255193A1
